Recorded values, source ChEMBL document CHEMBL4017441.

Data export: pIC50 values recorded with Bile salt export pump (Homo sapiens).
Sequence (O95342 whole entry): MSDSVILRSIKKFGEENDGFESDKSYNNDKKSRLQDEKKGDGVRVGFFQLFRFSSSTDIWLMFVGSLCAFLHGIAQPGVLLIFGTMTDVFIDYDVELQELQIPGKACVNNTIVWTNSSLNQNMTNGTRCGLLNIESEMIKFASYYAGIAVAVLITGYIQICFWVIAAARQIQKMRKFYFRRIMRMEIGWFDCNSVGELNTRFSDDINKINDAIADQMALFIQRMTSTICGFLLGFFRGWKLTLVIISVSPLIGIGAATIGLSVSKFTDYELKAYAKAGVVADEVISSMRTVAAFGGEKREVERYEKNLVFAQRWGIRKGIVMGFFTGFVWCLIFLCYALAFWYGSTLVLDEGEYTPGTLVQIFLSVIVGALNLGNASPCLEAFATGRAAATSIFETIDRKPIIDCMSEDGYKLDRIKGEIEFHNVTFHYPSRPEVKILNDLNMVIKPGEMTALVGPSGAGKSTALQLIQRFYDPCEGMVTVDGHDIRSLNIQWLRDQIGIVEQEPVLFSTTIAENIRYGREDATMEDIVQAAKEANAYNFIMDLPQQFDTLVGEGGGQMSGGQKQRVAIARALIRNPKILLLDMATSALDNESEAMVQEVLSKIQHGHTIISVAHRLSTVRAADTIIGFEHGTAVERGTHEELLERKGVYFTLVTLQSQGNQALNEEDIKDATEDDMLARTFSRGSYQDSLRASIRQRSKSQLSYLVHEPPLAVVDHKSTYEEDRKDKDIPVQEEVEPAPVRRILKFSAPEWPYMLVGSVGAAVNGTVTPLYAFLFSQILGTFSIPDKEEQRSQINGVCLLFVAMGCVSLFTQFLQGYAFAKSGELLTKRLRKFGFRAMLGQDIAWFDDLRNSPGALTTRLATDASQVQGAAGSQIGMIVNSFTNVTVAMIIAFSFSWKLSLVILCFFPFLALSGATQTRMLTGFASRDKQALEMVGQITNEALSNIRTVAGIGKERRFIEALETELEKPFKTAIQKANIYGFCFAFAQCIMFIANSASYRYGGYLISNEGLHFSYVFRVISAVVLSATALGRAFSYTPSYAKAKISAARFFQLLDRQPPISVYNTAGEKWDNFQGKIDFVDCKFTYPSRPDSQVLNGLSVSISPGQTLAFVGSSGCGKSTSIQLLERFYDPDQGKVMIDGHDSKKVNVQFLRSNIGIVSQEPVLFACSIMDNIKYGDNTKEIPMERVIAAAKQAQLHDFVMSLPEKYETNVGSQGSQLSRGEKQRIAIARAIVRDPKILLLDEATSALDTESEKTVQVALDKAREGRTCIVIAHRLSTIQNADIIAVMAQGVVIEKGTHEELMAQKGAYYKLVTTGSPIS
pIC50 here: minus log base 10 of the concentration, concentration in moles per litre.

-- ask # get_value(readout= pIC50, system= Bile salt export pump (Homo sapiens)) for CCN(CC)CCOC(=O)C(c1ccccc1)c1ccccc1 [ADIPHENINE]
-- reply 3.80

-- ask Provide value of pIC50 for this record tested with Bile salt export pump (Homo sapiens): O=C(O[C@H]1C[N+]2(CCCOc3ccccc3)CCC1CC2)C(O)(c1cccs1)c1cccs1
-- reply 3.90

-- ask Param readout = pIC50; param system = Bile salt export pump (Homo sapiens); param query = O=C(O)Cc1ccccc1Oc1ccc(Cl)cc1Cl [FENCLOFENAC] ; response: value
-- reply 3.63

-- ask Identify the measured pIC50 of N[C@@H](Cc1ccc(N(CCCl)CCCl)cc1)C(=O)O for Bile salt export pump (Homo sapiens).
-- reply 4.03
